Origin of the recorded values: patent US20240180880A1

# Test system: 284 cell lines
# measurement protocol: cells
# measurement setup: Homo sapiens, D283 Med, read-out: Cell Count IC50, D283 Med; Central Nervous System; Medulloblastoma
pIC50: −log10 of the molar value.
result type: pIC50

Give the measured pIC50 of CNc1cc(C)nc(Nc2ccc(OC)c(OCCCN3CCCC3)c2)n1 .
5.00 to 6.00

---

# Tested on: 284 cell lines
# measurement protocol: cells
# measurement setup: Homo sapiens, Calu-1, read-out: Cell Count IC50, Calu1; Lung; NSCLC
pIC50: −log10 of the molar value.
result type: pIC50

Give the measured pIC50 of CNc1cc(C)nc(Nc2ccc(OC)c(OCCCN3CCCC3)c2)n1 [Compound 205] .
< 5.00

---

# Tested on: 284 cell lines
# measurement protocol: cells
# measurement setup: Homo sapiens, BT-20, read-out: Cell Count IC50, BT20; Breast
pIC50: −log10 of the molar value.
result type: pIC50

Give the measured pIC50 of CNc1cc(C)nc(Nc2ccc(OC)c(OCCCN3CCCC3)c2)n1 .
< 5.00

---

# Tested on: 284 cell lines
# measurement protocol: cells
# measurement setup: Homo sapiens, HEC-1-A, read-out: Cell Count IC50, HEC-1-A; Female GU; Uterus
result type: IC50

Give the measured IC50 of CNc1cc(C)nc(Nc2ccc(OC)c(OCCCN3CCCC3)c2)n1 .
1 to 10 µM

---

# Test system: 284 cell lines
# measurement protocol: cells
# measurement setup: Homo sapiens, K562, read-out: Cell Count IC50, K562; Hematopoietic; Leukemia
pIC50: −log10 of the molar value.
result type: pIC50

Give the measured pIC50 of CNc1cc(C)nc(Nc2ccc(OC)c(OCCCN3CCCC3)c2)n1 .
5.00 to 6.00

---

# System: 284 cell lines
# measurement protocol: cells
# measurement setup: Homo sapiens, CFPAC-1, read-out: Cell Count IC50, CFPAC-1; Pancreas
pIC50: −log10 of the molar value.
result type: pIC50

Give the measured pIC50 of CNc1cc(C)nc(Nc2ccc(OC)c(OCCCN3CCCC3)c2)n1 .
< 5.00

---

# Test system: 284 cell lines
# measurement protocol: cells
# measurement setup: read-out: Cell Count IC50, KLE; Female GU; Uterus
pIC50: −log10 of the molar value.
result type: pIC50

Reported pIC50 for 284 cell lines, given CNc1cc(C)nc(Nc2ccc(OC)c(OCCCN3CCCC3)c2)n1 ?
< 5.00

---

# Test system: 284 cell lines
# measurement protocol: cells
# measurement setup: Homo sapiens, HuP-T4, read-out: Cell Count IC50, HuP-T4; Pancreas
result type: IC50

Reported IC50 for 284 cell lines, given CNc1cc(C)nc(Nc2ccc(OC)c(OCCCN3CCCC3)c2)n1 ?
1 to 10 µM

---

# Test system: 284 cell lines
# measurement protocol: cells
# measurement setup: Homo sapiens, COR-L23, read-out: Cell Count IC50, COR-L23; Lung; NSCLC
pIC50: −log10 of the molar value.
result type: pIC50

Reported pIC50 for 284 cell lines, given CNc1cc(C)nc(Nc2ccc(OC)c(OCCCN3CCCC3)c2)n1 [Compound 205] ?
5.00 to 6.00

---

# Test system: 284 cell lines
# measurement protocol: cells
# measurement setup: Homo sapiens, ARH-77, read-out: Cell Count IC50, ARH-77; Hematopoietic; Myeloma
result type: IC50

Give the measured IC50 of CNc1cc(C)nc(Nc2ccc(OC)c(OCCCN3CCCC3)c2)n1 [Compound 205] .
1 to 10 µM

---

# Tested on: 284 cell lines
# measurement protocol: cells
# measurement setup: read-out: Cell Count IC50, 5637; Bladder
pIC50: −log10 of the molar value.
result type: pIC50

Give the measured pIC50 of CNc1cc(C)nc(Nc2ccc(OC)c(OCCCN3CCCC3)c2)n1 .
< 5.00

---

# Test system: 284 cell lines
# measurement protocol: cells
# measurement setup: Homo sapiens, LNCaP, read-out: Cell Count IC50, LNCaP; Prostate
pIC50: −log10 of the molar value.
result type: pIC50

Give the measured pIC50 of CNc1cc(C)nc(Nc2ccc(OC)c(OCCCN3CCCC3)c2)n1 .
6.00 to 7.00

---

# Test system: 284 cell lines
# measurement protocol: cells
# measurement setup: Homo sapiens, WiDr, read-out: Cell Count IC50, WiDr; Colon
pIC50: −log10 of the molar value.
result type: pIC50

Reported pIC50 for 284 cell lines, given CNc1cc(C)nc(Nc2ccc(OC)c(OCCCN3CCCC3)c2)n1 [Compound 205] ?
5.00 to 6.00

---

# System: 284 cell lines
# measurement protocol: cells
# measurement setup: Homo sapiens, LS174T, read-out: Cell Count IC50, LS-174T; Colon
result type: IC50

Reported IC50 for 284 cell lines, given CNc1cc(C)nc(Nc2ccc(OC)c(OCCCN3CCCC3)c2)n1 ?
1 to 10 µM

---

# Test system: 284 cell lines
# measurement protocol: cells
# measurement setup: Homo sapiens, SW684, read-out: Cell Count IC50, SW684; Soft & Connective Tissue; Sarcoma
# Protocol: A screen of 284 cell lines to assess the antiproliferative effect of EHMT2 inhibition was conducted by treating cell lines in 384-well format with a half-log step dilutions of Compound 205 over 10 concentrations with a maximum concentration of 0.1% v/v DMSO. Cells were plated on Day 0 and treated with compound on Day 1. […] Automated fluorescence microscopy was carried out using a Molecular Devices ImageXpress Micro XL high-content imager, and images were collected with a 4× objective. […]
pIC50: −log10 of the molar value.
result type: pIC50

Give the measured pIC50 of CNc1cc(C)nc(Nc2ccc(OC)c(OCCCN3CCCC3)c2)n1 [Compound 205] .
6.00 to 7.00

---

# System: 284 cell lines
# measurement protocol: cells
# measurement setup: read-out: Cell Count IC50, A7; Skin; Melanoma
pIC50: −log10 of the molar value.
result type: pIC50

Reported pIC50 for 284 cell lines, given CNc1cc(C)nc(Nc2ccc(OC)c(OCCCN3CCCC3)c2)n1 [Compound 205] ?
< 5.00

---

# System: 284 cell lines
# measurement protocol: cells
# measurement setup: read-out: Cell Count IC50, HT; Hematopoietic; Lymphoma
result type: IC50

Give the measured IC50 of CNc1cc(C)nc(Nc2ccc(OC)c(OCCCN3CCCC3)c2)n1 .
1 to 10 µM

---

# System: 284 cell lines
# measurement protocol: cells
# measurement setup: KPL-1, read-out: Cell Count IC50, KPL-1; Breast
pIC50: −log10 of the molar value.
result type: pIC50

Give the measured pIC50 of CNc1cc(C)nc(Nc2ccc(OC)c(OCCCN3CCCC3)c2)n1 .
< 5.00

---

# System: 284 cell lines
# measurement protocol: cells
# measurement setup: Homo sapiens, SJRH30, read-out: Cell Count IC50, SJRH30; Soft & Connective Tissue; Sarcoma
result type: IC50

Reported IC50 for 284 cell lines, given CNc1cc(C)nc(Nc2ccc(OC)c(OCCCN3CCCC3)c2)n1 [Compound 205] ?
1 to 10 µM

---

# System: 284 cell lines
# measurement protocol: cells
# measurement setup: Homo sapiens, SCC-4, read-out: Cell Count IC50, SCC-4; Head and Neck
result type: IC50

Reported IC50 for 284 cell lines, given CNc1cc(C)nc(Nc2ccc(OC)c(OCCCN3CCCC3)c2)n1 ?
> 10 µM

---

# Test system: 284 cell lines
# measurement protocol: cells
# measurement setup: Homo sapiens, 769-P, read-out: Cell Count IC50, 769-P; Kidney
pIC50: −log10 of the molar value.
result type: pIC50

Give the measured pIC50 of CNc1cc(C)nc(Nc2ccc(OC)c(OCCCN3CCCC3)c2)n1 .
5.00 to 6.00

---

# Tested on: 284 cell lines
# measurement protocol: cells
# measurement setup: Homo sapiens, U-118-MG, read-out: Cell Count IC50, U-118 MG; Central Nervous System; Glioma
result type: IC50

Give the measured IC50 of CNc1cc(C)nc(Nc2ccc(OC)c(OCCCN3CCCC3)c2)n1 .
100 to 1000 nM

---

# Test system: 284 cell lines
# measurement protocol: cells
# measurement setup: Homo sapiens, BPH-1, read-out: Cell Count IC50, BPH1; Prostate
pIC50: −log10 of the molar value.
result type: pIC50

Give the measured pIC50 of CNc1cc(C)nc(Nc2ccc(OC)c(OCCCN3CCCC3)c2)n1 .
< 5.00

---

# Tested on: 284 cell lines
# measurement protocol: cells
# measurement setup: Homo sapiens, MEG-01, read-out: Cell Count IC50, MEG01; Hematopoietic; Leukemia
result type: IC50

Give the measured IC50 of CNc1cc(C)nc(Nc2ccc(OC)c(OCCCN3CCCC3)c2)n1 [Compound 205] .
1 to 10 µM

---

# System: 284 cell lines
# measurement protocol: cells
# measurement setup: Homo sapiens, SW48, read-out: Cell Count IC50, SW48; Colon
pIC50: −log10 of the molar value.
result type: pIC50

Give the measured pIC50 of CNc1cc(C)nc(Nc2ccc(OC)c(OCCCN3CCCC3)c2)n1 .
5.00 to 6.00
